Sourced from ChEMBL document CHEMBL1146676

Species: Homo sapiens
Test: Inhibitory activity against proliferation of human microvascular endothelial cell
measuredMetric: IC50

Q: Recorded IC50 for CC(C)SCC[C@@H](N)[C@H](O)C(=O)NNC(=O)c1cccc(Cl)c1 , please?
Ans: 100 nM

---

Dear all, this message contains IC50 results, target or system Methionine aminopeptidase 1 (Homo sapiens).

Q: Recorded IC50 for N[C@H](CC1CCCCC1)[C@H](O)C(=O)NNC(=O)c1cc(Cl)ccc1Cl , please?
Ans: > 100 µM

Q: Recorded IC50 for CC(NC(=O)[C@@H](O)[C@H](N)CC1CCCCC1)c1ccc2ccccc2c1 (stereo partly specified) , please?
Ans: 5.3 µM

Q: Recorded IC50 for CC(C)CSC[C@@H](N)[C@H](O)C(=O)NOc1ccccc1 , please?
Ans: 1.5 µM

Q: Recorded IC50 for N[C@H](C1CCCCC1)C(O)C(=O)NOc1ccccc1 (stereo partly specified) , please?
Ans: 95 µM

Q: Recorded IC50 for CCOC(=O)C(C)(C)NC(=O)[C@@H](O)[C@H](N)CC1CCCCC1 , please?
Ans: > 100 µM

Q: Recorded IC50 for CCCC[C@@H](N)C(O)C(=O)N[C@@H](C)C(=O)OCC (stereo partly specified) , please?
Ans: 100 µM

Q: Recorded IC50 for Cc1ccc(NNC(=O)[C@@H](O)[C@H](N)CCc2ccccc2)cc1 , please?
Ans: 16 µM

Q: Recorded IC50 for N[C@H](CC1CCCCC1)[C@H](O)C(=O)NNc1cccc2ccccc12 , please?
Ans: 58 µM

Q: Recorded IC50 for CCOC(=O)[C@@H](C)NC(=O)[C@@H](O)[C@H](N)CC1CCCCC1 , please?
Ans: > 100 µM

Q: Recorded IC50 for CCCSC[C@@H](N)[C@H](O)C(=O)NNC(=O)c1cccc(Cl)c1 , please?
Ans: 11 µM

Q: Recorded IC50 for N[C@H](C1CCCCC1)[C@H](O)C(=O)NNc1cccc2ccccc12 , please?
Ans: 89 µM

Q: Recorded IC50 for C[C@H](NC(=O)[C@@H](O)[C@H](N)CC1CCCCC1)C(=O)O , please?
Ans: > 100 µM

Q: Recorded IC50 for CCCSC[C@@H](N)[C@H](O)C(=O)N[C@@H](CO)c1ccccc1 , please?
Ans: 12 µM

Q: Recorded IC50 for CC(C)CSC[C@@H](N)[C@H](O)C(=O)N[C@@H](CO)c1ccccc1 , please?
Ans: 11 µM

Q: Recorded IC50 for CCOC(=O)[C@H](C)NC(=O)C(O)[C@H](N)CCSC (stereo partly specified) , please?
Ans: 63 µM

Q: Recorded IC50 for CCSCC[C@@H](N)[C@H](O)C(=O)NOc1ccccc1 , please?
Ans: 1.3 µM
